System: NCI-H2795 (Mesothelioma);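 further: after 72 h of two-drug dosing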
Assay: Bliss excess, mean over the matrix (fraction); higher = more synergy
// Bliss excess lookup, one value per entry

| Molecule | Measurement target | Bliss excess |
| --- | --- | --- |
| O=C(c1cc(Cc2n[nH]c(=O)c3ccccc23)ccc1F)N1CCN(C(=O)C2CC2)CC1 [Olaparib] + CC1(C)CCC(CN2CCN(c3ccc(C(=O)NS(=O)(=O)c4ccc(NCC5CCOCC5)c([N+](=O)[O-])c4)c(Oc4cnc5[nH]ccc5c4)c3)CC2)=C(c2ccc(Cl)cc2)C1 [Venetoclax] (first compound max 10 µM, 7x7, partner max 1 µM) | NCI-H2795 (Mesothelioma) | -0.0329 |
| Cc1nc(Nc2ncc(C(=O)Nc3c(C)cccc3Cl)s2)cc(N2CCN(CCO)CC2)n1 [Dasatinib] + CC(=O)Nc1cccc(-n2c(=O)n(C3CC3)c(=O)c3c(Nc4ccc(I)cc4F)n(C)c(=O)c(C)c32)c1 [Trametinib] (first compound max 2 µM, 7x7, partner max 1 µM) | NCI-H2795 (Mesothelioma) | -0.0513 |

Here is the next item to consider.
So the reported Bliss excess for Cn1cnc2c(F)c(Nc3ccc(Br)cc3Cl)c(C(=O)NOCCO)cc21 [Selumetinib] + CCN(CCO)CCCOc1ccc2c(Nc3cc(CC(=O)Nc4cccc(F)c4)[nH]n3)ncnc2c1 [AZD2811] (first compound max 10 µM, 7x7, partner max 1 µM) , on NCI-H2795 (Mesothelioma), turned out to be -0.0238
